Measured values drawn from patent US20080103209A1 for this set.

- experimental-target: human PPARα (Homo sapiens)
- Sequence (Q07869 239-466 limits assumed): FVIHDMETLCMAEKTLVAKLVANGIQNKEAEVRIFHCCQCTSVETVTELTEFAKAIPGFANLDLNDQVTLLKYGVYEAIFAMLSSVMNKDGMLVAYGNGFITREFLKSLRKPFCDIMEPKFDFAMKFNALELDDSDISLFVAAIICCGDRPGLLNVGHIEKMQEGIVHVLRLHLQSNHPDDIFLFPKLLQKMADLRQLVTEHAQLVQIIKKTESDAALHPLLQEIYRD
- test: PPARα transactivation assay (HeLa cells, luciferase reporter)
- measurement-conditions: HeLa cells, n=12; read-out: half-maximal effective concentration (EC50), PPARα activation
endpoint: EC50 (µM)
Give bare numbers, in µM.

Endpoint output: EC50 of CCCCCCCCCCCCCCCC(=O)NCCO [PEA, palmitoylethanolamide] . Value? 3
